Biological target: CYP2C19 (Homo sapiens, UniProt P33261)
Construct: purchased BD Gentest (Woburn, MA, USA); host or cells: baculovirus expression system
Sequence (P33261 whole entry): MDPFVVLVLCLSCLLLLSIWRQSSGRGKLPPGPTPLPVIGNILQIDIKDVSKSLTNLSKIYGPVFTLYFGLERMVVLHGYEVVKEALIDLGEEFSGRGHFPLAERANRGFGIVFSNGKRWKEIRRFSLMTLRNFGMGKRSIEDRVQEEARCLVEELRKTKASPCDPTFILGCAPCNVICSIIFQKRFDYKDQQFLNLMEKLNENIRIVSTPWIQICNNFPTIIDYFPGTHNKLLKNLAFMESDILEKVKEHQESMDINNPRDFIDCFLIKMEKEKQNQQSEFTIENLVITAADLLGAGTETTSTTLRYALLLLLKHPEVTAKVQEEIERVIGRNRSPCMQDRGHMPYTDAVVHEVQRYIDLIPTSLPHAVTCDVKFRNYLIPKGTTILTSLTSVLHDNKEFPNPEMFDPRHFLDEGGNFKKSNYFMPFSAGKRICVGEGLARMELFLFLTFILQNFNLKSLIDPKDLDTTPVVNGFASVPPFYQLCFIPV
Assay: Reversible inhibition (co-incubation assay) of recombinant CYP2C19
Type: in vitro ADME
Details: recombinant CYP2C19, co-incubation
What pIC50 was measured for each of the following?
Give bare numbers, as −log10 of the molar value.

Below are worked cases with known answers.
[in] Requested read-out pIC50, target or system CYP2C19 (Homo sapiens, UniProt P33261), entry CCCC/C=C\CCCCCCCCCc1cc(O)cc(O)c1 [5-[10(Z)-pentadecenyl]resorcinol]
[out] 5.42

[in] Requested read-out pIC50, target or system CYP2C19 (Homo sapiens, UniProt P33261), entry CCCC/C=C\CCCCCCCCCc1cc(O)cc2oc3cc(OC)c(O)c(CCCCCCCCC/C=C\CCCC)c3c12 [Fatimahol]
[out] 4.77

Next, consider the following compound.
[in] Requested read-out pIC50, target or system CYP2C19 (Homo sapiens, UniProt P33261), entry CCCC/C=C\CCCCCCCCCc1cc(O)cc(OC)c1 [Belamcandol B]
[out] 5.66
